# test-target: Thioredoxin reductase 1, cytoplasmic (Rattus norvegicus)
# Sequence (O89049 whole entry): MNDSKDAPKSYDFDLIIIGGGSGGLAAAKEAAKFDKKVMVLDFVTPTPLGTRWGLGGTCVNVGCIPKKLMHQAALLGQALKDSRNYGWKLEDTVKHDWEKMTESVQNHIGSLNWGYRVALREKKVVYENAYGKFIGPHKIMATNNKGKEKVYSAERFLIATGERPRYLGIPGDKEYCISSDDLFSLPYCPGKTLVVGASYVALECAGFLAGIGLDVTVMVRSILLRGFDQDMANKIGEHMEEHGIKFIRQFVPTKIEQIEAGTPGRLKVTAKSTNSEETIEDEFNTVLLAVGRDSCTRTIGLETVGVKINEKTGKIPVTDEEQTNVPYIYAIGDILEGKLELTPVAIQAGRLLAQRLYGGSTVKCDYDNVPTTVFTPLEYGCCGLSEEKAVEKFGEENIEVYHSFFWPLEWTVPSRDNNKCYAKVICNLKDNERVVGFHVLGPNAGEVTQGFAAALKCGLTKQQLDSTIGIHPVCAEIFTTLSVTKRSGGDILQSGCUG
# method-summary: Inhibition of rat TrxR1 using DTNB as substrate preincubated for 15 mins followed by substrate addition and measured for 20 mins by colorimetric method
outcome-measure: EC50 (µM)
Output spec: scalar in µM, unitless text.

Value lookup for EC50; key = Cc1cccc(Nc2ccccc2C(=O)NCCn2[se]c3ccccc3c2=O)c1C 26.6

Check CC(C(=O)NCCn1[se]c2ccccc2c1=O)c1ccc(-c2ccccc2)c(F)c1 (stereo not given) too. 28.5

Check O=C(NCCn1[se]c2ccccc2c1=O)c1ccccc1Nc1cccc(C(F)(F)F)c1 too. 24.8

Check CC(=O)Oc1ccccc1C(=O)NCCn1[se]c2ccccc2c1=O too. 21.4

Continue with the next compound.
Value lookup for EC50; key = CC(C(=O)NCCn1[se]c2ccccc2c1=O)c1cccc(C(=O)c2ccccc2)c1 (stereo not given) 23.6
